Data origin: patent US5501962

- study_target: IL-3 receptor (human) (UniProt P26951)
- assay_comment: competition with iodinated hIL-3 ligand (pMON 5966) on AML 193 1.3.9 cells
# cutoff 1 applies to IL-3 Receptor Binding Activity (relative to native hIL-3) (relative to native hIL-3); >= gives t, < gives f

binder | class_label
pMON5960 (Met-15-125hIL-3) having an M11 substitution (ligand) MNCSNMIDEIITHLKQPPLPLLDFNNLNGEDQDILMENNLRRPNLEAFNRAVKSLQNASAIESILKNLLPCLPLATAASALPPIHIKDGDWNEFRRKLTFYLKTLENAQAQQ | f
pMON5961 (Met-15-125hIL-3) having an M12 substitution (ligand) MNCSNMIDEIITHLKQPPLPLLDFNNLNGEDQDILMENNLRRPNLEAFNRAVKSLQNASAIESILKNLLPCLPLATAAPTRHGVFIRDGDWNEFRRKLTFYLKTLENAQAQQ | t
pMON5970 (Met-15-125hIL-3) having an M5 substitution (ligand) MNCSNMIDEIITHLKQPPLPLLDFNNLNGEDQDSLRNKSLRRPNLEAFNRAVKSLQNASAIESILKNLLPCLPLATAAPTRHPIHIKDGDWNEFRRKLTFYLKTLENAQAQQ | f
pMON5972 (Met-15-125hIL-3) having an M6 substitution (ligand) MNCSNMIDEIITHLKQPPLPLLDFNNLNGEDQDILMENNFRRVNLSKFVEAVKSLQNASAIESILKNLLPCLPLATAAPTRHPIHIKDGDWNEFRRKLTFYLKTLENAQAQQ | f
pMON5975 (Met-15-125hIL-3) having an M4 substitution (ligand) MNCSNMIDEIITHLKQPPLPLLDFNNLTDDEGPILMENNLRRPNLEAFNRAVKSLQNASAIESILKNLLPCLPLATAAPTRHPIHIKDGDWNEFRRKLTFYLKTLENAQAQQ | f
pMON5962 (Met-15-125hIL-3) having an M10 substitution (ligand) MNCSNMIDEIITHLKQPPLPLLDFNNLNGEDQDILMENNLRRPNLEAFNRAVKSLQNASAIESILKNLLPCLPTSANDPTRHPIHIKDGDWNEFRRKLTFYLKTLENAQAQQ | f
pMON5980 (Met-Ala-15-125hIL-3) having an M1 substitution (ligand) MANCSSIVKEIIGKLPQPPLPLLDFNNLNGEDQDILMENNLRRPNLEAFNRAVKSLQNASAIESILKNLLPCLPLATAAPTRHPIHIKDGDWNEFRRKLTFYLKTLENAQAQQ | f
pMON5963 (Met-15-125hIL-3 Ala 101) having an M9 substitution (ligand) MNCSNMIDEIITHLKQPPLPLLDFNNLNGEDQDILMENNLRRPNLEAFNRAVKSLQNASAIKSNLQKLNSCLPLATAAPTRHPIHIKAGDWNEFRRKLTFYLKTLENAQAQQ | t
pMON5977 (Met-15-125hIL-3) having an M3 substitution (ligand) MNCSNMIDEIITHLKQPPLPLLEPELKNGEDQDILMENNLRRPNLEAFNRAVKSLQNASAIESILKNLLPCLPLATAAPTRHPIHIKDGDWNEFRRKLTFYLKTLENAQAQQ | f
